system: vancomycin-middle resistant Staphylococcus aureus Mu50 strain; experiment: In vitro antibacterial activity assay (MIC, CLSI dilution method); format: cell-based; settings: Staphylococcus aureus, 16 h, S. aureus Mu50, 37° C., read-out: MIC Mu50
property: MIC
Quote the value and follow it with the unit of measurement.

Use the examples below as a reference point.
>>> value_measured("CN[C@H](CC(C)C)C(=O)N[C@H]1C(=O)N[C@@H](CC(N)=O)C(=O)N[C@H]2C(=O)N[C@H]3C(=O)N[C@H](C(=O)NC(C(=O)NCCCN(C)C)c4cc(O)c(CNCCCNC(=O)[C@H](O)[C@@H](O)[C@H](O)[C@H](O)CO)c(O)c4-c4cc3ccc4O)[C@H](O)c3ccc(c(Cl)c3)Oc3cc2cc(c3OC2O[C@H](CO)C(O)C(O)[C@H]2O[C@H]2CC(C)(NCc3ccc(-c4ccc(Cl)cc4)cc3)[C@H](O)C(C)O2)Oc2ccc(cc2Cl)[C@H]1O (stereo partly drawn)")
"2 µg/mL"
>>> value_measured("CN[C@H](CC(C)C)C(=O)N[C@H]1C(=O)N[C@@H](CC(N)=O)C(=O)N[C@H]2C(=O)N[C@H]3C(=O)N[C@H](C(=O)N[C@H](C(=O)NCCCN(C)C)c4cc(O)c(CNCCOC5OC(CO)[C@@H](O)C(O)C5O)c(O)c4-c4cc3ccc4O)[C@H](O)c3ccc(c(Cl)c3)Oc3cc2cc(c3OC2O[C@H](CO)C(O)C(O)[C@H]2O[C@H]2CC(C)(NCc3ccc(-c4ccc(Cl)cc4)cc3)[C@H](O)C(C)O2)Oc2ccc(cc2Cl)[C@H]1O (stereo partly drawn)")
"4 µg/mL"

Please give the documented MIC of CCCCCCCCCCNCCNC1(C)C[C@H](O[C@H]2C(Oc3c4cc5cc3Oc3ccc(cc3Cl)[C@@H](O)[C@@H](NC(=O)[C@@H](CC(C)C)NC)C(=O)N[C@@H](CC(N)=O)C(=O)N[C@H]5C(=O)N[C@H]3C(=O)N[C@H](C(=O)N[C@H](C(=O)O)c5cc(O)c(CNCCO[C@@H]6OC(CO)[C@@H](O)C(O)C6O)c(O)c5-c5cc3ccc5O)[C@H](O)c3ccc(c(Cl)c3)O4)O[C@H](CO)C(O)C2O)OC(C)[C@H]1O (stereo partly drawn) 4 µg/mL

* * *

assay: in vivo; conditions: male, CD-1, mouse, iv, 5 mg/kg
property: AUC(0-t)
Quote the value and follow it with the unit of measurement.

Please give the documented AUC(0-t) of CN[C@H](CC(C)C)C(=O)N[C@H]1C(=O)N[C@@H](CC(N)=O)C(=O)N[C@H]2C(=O)N[C@H]3C(=O)N[C@H](C(=O)N[C@H](C(=O)O)c4cc(O)c(CNCCCNC(=O)[C@H](O)[C@@H](O)[C@H](O)[C@H](O)CO)c(O)c4-c4cc3ccc4O)[C@H](O)c3ccc(c(Cl)c3)Oc3cc2cc(c3OC2O[C@H](CO)C(O)C(O)[C@H]2O[C@@H]2CC(C)[C@@H](O)C(C)(NCc3ccc(-c4ccc(C(F)(F)F)cc4)cc3)C2)Oc2ccc(cc2Cl)[C@H]1O (stereo partly shown) 10700 ng·h/mL

* * *

assay: in vivo; conditions: male, CD-1, mouse, iv, 5 mg/kg
property: AUC(0-inf)
Quote the value and follow it with the unit of measurement.

Please give the documented AUC(0-inf) of CN[C@H](CC(C)C)C(=O)N[C@H]1C(=O)N[C@@H](CC(N)=O)C(=O)N[C@H]2C(=O)N[C@H]3C(=O)N[C@H](C(=O)N[C@H](C(=O)O)c4cc(O)c(CNCCCNC(=O)[C@H](O)[C@@H](O)[C@H](O)[C@H](O)CO)c(O)c4-c4cc3ccc4O)[C@H](O)c3ccc(c(Cl)c3)Oc3cc2cc(c3OC2O[C@H](CO)C(O)C(O)[C@H]2O[C@@H]2CC(C)[C@@H](O)C(C)(NCc3ccc(-c4ccc(C(F)(F)F)cc4)cc3)C2)Oc2ccc(cc2Cl)[C@H]1O (stereo partly shown) 13400 ng·h/mL

* * *

test system: vancomycin-middle resistant Staphylococcus aureus Mu50 strain; assay: In vitro antibacterial activity assay (MIC, CLSI dilution method); type: cell-based; details: Staphylococcus aureus, 16 h, S. aureus Mu50, 37° C., read-out: MIC Mu50
Reported MIC is given for each of the following compounds.
Report the value in µg/mL with no unit label.

>>> value_measured("CCCCCCCCCCNCCNC1(C)C[C@H](O[C@H]2C(Oc3c4cc5cc3Oc3ccc(cc3Cl)[C@@H](O)[C@@H](NC(=O)[C@@H](CC(C)C)NC)C(=O)N[C@@H](CC(N)=O)C(=O)N[C@H]5C(=O)N[C@H]3C(=O)N[C@H](C(=O)N[C@H](C(=O)O)c5cc(O)c(CNCCCNC(=O)[C@H](O)[C@@H](O)[C@H](O[C@@H]6OC(CO)[C@H](O)C(O)C6O)[C@H](O)CO)c(O)c5-c5cc3ccc5O)[C@H](O)c3ccc(c(Cl)c3)O4)O[C@H](CO)C(O)C2O)OC(C)[C@H]1O (some centres unmarked)")
1

Please give the documented MIC of C#Cc1ccc(CNC2(C)C[C@H](O[C@H]3C(Oc4c5cc6cc4Oc4ccc(cc4Cl)[C@@H](O)[C@@H](NC(=O)[C@@H](CC(C)C)NC)C(=O)N[C@@H](CC(N)=O)C(=O)N[C@H]6C(=O)N[C@H]4C(=O)N[C@H](C(=O)N[C@H](C(=O)O)c6cc(O)c(CNCCCNC(=O)[C@H](O)[C@@H](O)[C@H](O)[C@H](O)CO)c(O)c6-c6cc4ccc6O)[C@H](O)c4ccc(c(Cl)c4)O5)O[C@H](CO)C(O)C3O)CC(C)[C@H]2O)cc1 (some centres unmarked) 8

* * *

Reported AUC(0-inf) is given for each of the following compounds.
experiment: In vivo pharmacokinetic assay in mice; conditions: male, CD-1, mouse, in vivo, iv, 5 mg/kg
Report the value in ng·h/mL with no unit label.

>>> value_measured("CN[C@H](CC(C)C)C(=O)N[C@H]1C(=O)N[C@@H](CC(N)=O)C(=O)N[C@H]2C(=O)N[C@@H]3C(=O)N[C@H](C(=O)N[C@H](C(=O)O)c4cc(O)c(CNC5C(O)OC(CO)[C@H](O)[C@@H]5O)c(O)c4-c4cc3ccc4O)[C@H](O)c3ccc(c(Cl)c3)Oc3cc2cc(c3O[C@@H]2O[C@H](CO)C(O)C(O)[C@H]2O[C@H]2CC(C)(NCc3ccc(-c4ccc(Cl)cc4)cc3)[C@H](O)[C@H](C)O2)Oc2ccc(cc2Cl)[C@H]1O (stereo partly drawn) [Van038]")
12200

Please give the documented AUC(0-inf) of CN[C@H](CC(C)C)C(=O)N[C@H]1C(=O)N[C@@H](CC(N)=O)C(=O)N[C@H]2C(=O)N[C@H]3C(=O)N[C@H](C(=O)N[C@H](C(=O)O)c4cc(O)c(CNCCO[C@@H]5OC(CO)[C@H](O)C(O)C5O)c(O)c4-c4cc3ccc4O)[C@H](O)c3ccc(c(Cl)c3)Oc3cc2cc(c3OC2O[C@H](CO)C(O)C(O)[C@H]2O[C@@H]2CC(C)[C@@H](O)C(C)(NCc3ccc(-c4ccc(C(F)(F)F)cc4)cc3)C2)Oc2ccc(cc2Cl)[C@H]1O (stereo partly drawn) [Van037] 20000

Please give the documented AUC(0-inf) of CN[C@H](CC(C)C)C(=O)N[C@H]1C(=O)N[C@@H](CC(N)=O)C(=O)N[C@H]2C(=O)N[C@@H]3C(=O)N[C@H](C(=O)N[C@H](C(=O)O)c4cc(O)c(CNC5C(O)OC(CO)[C@H](O)[C@@H]5O)c(O)c4-c4cc3ccc4O)[C@H](O)c3ccc(c(Cl)c3)Oc3cc2cc(c3O[C@@H]2O[C@H](CO)C(O)C(O)[C@H]2O[C@H]2CC(C)(NCc3ccc(-c4ccc(C(F)(F)F)cc4)cc3)[C@H](O)[C@H](C)O2)Oc2ccc(cc2Cl)[C@H]1O (stereo partly drawn) [Van032] 24300

* * *

Reported log10 of MIC is given for each of the following molecules.
tested on: vancomycin-sensitive Staphylococcus aureus Newman strain; assay: In vitro antibacterial activity assay (MIC, CLSI dilution method); assay type: cell-based; details: Staphylococcus aureus, NEWMAN, 16 h, S. aureus Newman, 37° C.
Would you kindly interpret these values as log10 of MIC expressed in µg/mL?

Use the examples below as a reference point.
>>> value_measured("CCCCCCCCCCC(=O)NC1(C)C[C@H](O[C@H]2C(Oc3c4cc5cc3Oc3ccc(cc3Cl)[C@@H](O)[C@@H](NC(=O)[C@@H](CC(C)C)NC)C(=O)N[C@@H](CC(N)=O)C(=O)N[C@H]5C(=O)N[C@H]3C(=O)N[C@H](C(=O)N[C@H](C(=O)O)c5cc(O)c(CNCCCNC(=O)[C@H](O)[C@@H](O)[C@H](O)[C@H](O)CO)c(O)c5-c5cc3ccc5O)[C@H](O)c3ccc(c(Cl)c3)O4)O[C@H](CO)C(O)C2O)CC(C)[C@H]1O (some centres unmarked)")
1.20
>>> value_measured("CCCCCc1ccc(CNC2(C)C[C@H](O[C@H]3C(Oc4c5cc6cc4Oc4ccc(cc4Cl)[C@@H](O)[C@@H](NC(=O)[C@@H](CC(C)C)NC)C(=O)N[C@@H](CC(N)=O)C(=O)N[C@H]6C(=O)N[C@H]4C(=O)N[C@H](C(=O)N[C@H](C(=O)O)c6cc(O)c(CNCCCNC(=O)[C@H](O)[C@@H](O)[C@H](O)[C@H](O)CO)c(O)c6-c6cc4ccc6O)[C@H](O)c4ccc(c(Cl)c4)O5)O[C@H](CO)C(O)C3O)CC(C)[C@H]2O)cc1 (some centres unmarked)")
-0.90
>>> value_measured("CCCCCCCCCNC1(C)C[C@H](O[C@H]2C(Oc3c4cc5cc3Oc3ccc(cc3Cl)[C@@H](O)[C@@H](NC(=O)[C@@H](CC(C)C)NC)C(=O)N[C@@H](CC(N)=O)C(=O)N[C@H]5C(=O)N[C@H]3C(=O)N[C@H](C(=O)N[C@H](C(=O)O)c5cc(O)c(CNCCCNC(=O)[C@H](O)[C@@H](O)[C@H](O)[C@H](O)CO)c(O)c5-c5cc3ccc5O)[C@H](O)c3ccc(c(Cl)c3)O4)O[C@H](CO)C(O)C2O)CC(C)[C@H]1O (some centres unmarked)")
-0.30
>>> value_measured("CCCCCCCCCCNCCNC1(C)C[C@H](O[C@@H]2C(O)C(O)[C@@H](CO)O[C@H]2Oc2c3cc4cc2Oc2ccc(cc2Cl)[C@@H](O)[C@@H](NC(=O)[C@@H](CC(C)C)NC)C(=O)N[C@@H](CC(N)=O)C(=O)N[C@H]4C(=O)N[C@@H]2C(=O)N[C@H](C(=O)N[C@H](C(=O)O)c4cc(O)c(CNCCO)c(O)c4-c4cc2ccc4O)[C@H](O)c2ccc(c(Cl)c2)O3)O[C@@H](C)[C@H]1O (some centres unmarked)")
0.00
>>> value_measured("CCCCCCCCCCNCCNC1(C)C[C@H](O[C@@H]2C(O)C(O)[C@@H](CO)O[C@H]2Oc2c3cc4cc2Oc2ccc(cc2Cl)[C@@H](O)[C@@H](NC(=O)[C@@H](CC(C)C)NC)C(=O)N[C@@H](CC(N)=O)C(=O)N[C@H]4C(=O)N[C@@H]2C(=O)N[C@H](C(=O)N[C@H](C(=O)O)c4cc(O)c(CNC5C(O)OC(CO)[C@@H](O)[C@@H]5O)c(O)c4-c4cc2ccc4O)[C@H](O)c2ccc(c(Cl)c2)O3)O[C@@H](C)[C@H]1O (some centres unmarked)")
0.90

Please give the documented log10 of MIC of CCc1ccc(CNC2(C)C[C@H](O[C@H]3C(Oc4c5cc6cc4Oc4ccc(cc4Cl)[C@@H](O)[C@@H](NC(=O)[C@@H](CC(C)C)NC)C(=O)N[C@@H](CC(N)=O)C(=O)N[C@H]6C(=O)N[C@H]4C(=O)N[C@H](C(=O)N[C@H](C(=O)O)c6cc(O)c(CNCCCNC(=O)[C@H](O)[C@@H](O)[C@H](O)[C@H](O)CO)c(O)c6-c6cc4ccc6O)[C@H](O)c4ccc(c(Cl)c4)O5)O[C@H](CO)C(O)C3O)CC(C)[C@H]2O)cc1 (some centres unmarked) 0.60

Please give the documented log10 of MIC of CCCCCCCCCCNCCNC1(C)C[C@H](O[C@H]2C(Oc3c4cc5cc3Oc3ccc(cc3Cl)[C@@H](O)[C@@H](NC(=O)[C@@H](CC(C)C)NC)C(=O)N[C@@H](CC(N)=O)C(=O)N[C@H]5C(=O)N[C@H]3C(=O)N[C@H](C(=O)N[C@H](C(=O)O)c5cc(O)c(CNCCO[C@@H]6OC(CO)[C@@H](O)C(O)C6O)c(O)c5-c5cc3ccc5O)[C@H](O)c3ccc(c(Cl)c3)O4)O[C@H](CO)C(O)C2O)OC(C)[C@H]1O (some centres unmarked) 0.00

Please give the documented log10 of MIC of CN[C@H](CC(C)C)C(=O)N[C@H]1C(=O)N[C@@H](CC(N)=O)C(=O)N[C@H]2C(=O)N[C@H]3C(=O)N[C@H](C(=O)N[C@H](C(=O)NCCCN(C)C)c4cc(O)c(CNCCOC5OC(CO)[C@@H](O)C(O)C5O)c(O)c4-c4cc3ccc4O)[C@H](O)c3ccc(c(Cl)c3)Oc3cc2cc(c3OC2O[C@H](CO)C(O)C(O)[C@H]2O[C@H]2CC(C)(NCc3ccc(-c4ccc(Cl)cc4)cc3)[C@H](O)C(C)O2)Oc2ccc(cc2Cl)[C@H]1O (some centres unmarked) 0.30

Please give the documented log10 of MIC of CCCCCCCCCC(=O)NC1(C)C[C@H](O[C@H]2C(Oc3c4cc5cc3Oc3ccc(cc3Cl)[C@@H](O)[C@@H](NC(=O)[C@@H](CC(C)C)NC)C(=O)N[C@@H](CC(N)=O)C(=O)N[C@H]5C(=O)N[C@H]3C(=O)N[C@H](C(=O)N[C@H](C(=O)O)c5cc(O)c(CNCCCNC(=O)[C@H](O)[C@@H](O)[C@H](O)[C@H](O)CO)c(O)c5-c5cc3ccc5O)[C@H](O)c3ccc(c(Cl)c3)O4)O[C@H](CO)C(O)C2O)CC(C)[C@H]1O (some centres unmarked) 1.51

Sourced from patent US10961278B2
